Each entry below carries its recorded GI50.
Tested on: SNB-75
Assay: NCI tumour cell line growth inhibition, 48 h
The source made the active and inactive calls. No stated cut-off is given here; in the data, active = GI50 up to about 1.1 µM and inactive = higher.

Examples from the recorded data:
                                   molecule  property          meas_value
0       ClCc1c(-c2ccccc2)nn(-c2ccccc2)c1CCl      GI50  4.18 µM (inactive)
1  COC1=CC(=O)C(O)=C(C[C@@]2(C)[C@@H]3CCC[C@H](COC(=O)CCCCCNC(=O)OC(C)(C)C)[C@@]3(C)CC[C@@H]2C)C1=O      GI50  5.11 µM (inactive)
2  COC(=O)C1=C(O)C(C(=O)OC)[C@]2(O)[C@H](C(=O)OC)[C@H]1C[C@@H](c1ccc(Cl)cc1)[C@H]2C(=O)OC (some centres undefined)      GI50  13.6 µM (inactive)

Switching to the query record.
Returns the measured GI50 for the input molecule. Input: `O=C(O)c1ccc2[nH]c(=O)oc2c1` > 100 µM (inactive)

# credit: ChEMBL document CHEMBL1201862
